Target: T1, human HER2 antigen protein (human, UniProt P04626 23-652)
T1 construct: Antigen coated in the ELISA of Embodiment 5 and immobilised on the CM-5 chip in Embodiment 7; Embodiment 7 says only 'antigen protein Her2' without species or construct; also called antigen protein Her2
Assay: Biacore, Her2 immobilised on CM-5 chip
Description: (1) Immobilization: the stationary phase antigen protein Her2 was immobilized on the surface of CM-5 sensor chip by carboxyl amino reaction. (3) Chip regeneration: when next antibody was determined, the chip was washed with 10 mM Glycine.
Please note: Kd exactly at 4 nM is 0 (no). Only values below 4 nM get 1 (yes).

binder	discreteLabel
Nanobody No. 22 (VHH, camel VHH from pMECs phage display vector; also called Antibody no; 22; not shown: tags (HA, His) implied by anti-HA detection and nickel column) VHH: QVQLQESGGGSVQAGGSLRLSCTASGFTFDDSDMGWYRQAPGNECELVSRISRDGTTYYADSVKGRFTISQDNAKNTVYLQMNSLKPEDTAVYYCADINSGYELGTCESLDYWGRGTQVTVSS	1 (yes)
Nanobody No. 26 (VHH, camel VHH from pMECs phage display vector; also called Antibody no; 26; not shown: tags (HA, His) implied by anti-HA detection and nickel column) VHH: QVQLQESGGGSVQAGETLRLSCTASGFTFDDSDMGWYRQAPGNECELVSSISSDGSTYYADSVKGRFTISQDNAKNTVYLQMNSLKPEDTGVYYCAAEGHRYELGTCAALDYWGRGTQVTVSS	1 (yes)
Nanobody No. 9 (VHH, camel VHH from pMECs phage display vector; also called Antibody no; not shown: tags (HA, His) implied by anti-HA detection and nickel column) VHH: QVQLQESGGGSVQAGETLRLSCTASGFTFDDSDMGWYRQAPGSECELVSTISSDGNTYYSNSVKGRFTISQDNAKNTVYLQMNSLKPEDTAVYYCAADDQHYELGTCEALDYWGRGTQVTVSS	1 (yes)
Nanobody No. 13 (VHH, camel VHH from pMECs phage display vector; also called Antibody no; 13; not shown: tags (HA, His) implied by anti-HA detection and nickel column) VHH: QVQLQESGGGSVQAGETLRLSCTASGFTFDDSDMGWYRQAPGNECELVSTISADGSTFYADSVKGRFTISQDNAKNTVYLQMNSLKPEDTAVYYCASPENEYELGTCEALDYWGQGTQVTVSS	1 (yes)
Nanobody No. 10 (VHH, camel VHH from pMECs phage display vector; also called Antibody no; 10; not shown: tags (HA, His) implied by anti-HA detection and nickel column) VHH: QVQLQESGGGSVQAGETLKLSCTASGFTFDDSTMAWYRQAPGNECKLVSTISSDGSTYYADSVKGRFTISQDNAKNTVYLQMNSLKPEDTAVYYCAADDQNYELGTCEALDYWGRGTQVTVSS	0 (no)
Nanobody No. 17 (VHH, camel VHH from pMECs phage display vector; also called Antibody no; 17; not shown: tags (HA, His) implied by anti-HA detection and nickel column) VHH: QVQLQESGGGSVQAGGSLRLSCTASGFTFDDSDMGWYRQAPGNECELVSTISSDGSTYYADSVKGRFTISQDNAKNTVYLQMNSLKPEDTAVYYCADVQIPYGLGTCESLDYWGRGTQVTVSS	0 (no)
Nanobody No. 23 (VHH, camel VHH from pMECs phage display vector; also called Antibody no; 23; not shown: tags (HA, His) implied by anti-HA detection and nickel column) VHH: QVQLQESGGGSVQAGGSLKLSCSASGFTFDDTDMGWYRQAPGNECELVSTISSDGTTYYTDSVKGRFTISQDNAKNTVYLQMNSLKPEDTAVYYCAAINSGYELGTCESLDYWGRGTQVTVSS	1 (yes)
